tested on: PI3K delta (PI3 Kd) (Homo sapiens, UniProt O00329)
Construct: endogenous in cells; host or cells: Jurkat, clone E6-1 (ATCC TIB-152) cell lysate
Sequence (O00329 whole entry): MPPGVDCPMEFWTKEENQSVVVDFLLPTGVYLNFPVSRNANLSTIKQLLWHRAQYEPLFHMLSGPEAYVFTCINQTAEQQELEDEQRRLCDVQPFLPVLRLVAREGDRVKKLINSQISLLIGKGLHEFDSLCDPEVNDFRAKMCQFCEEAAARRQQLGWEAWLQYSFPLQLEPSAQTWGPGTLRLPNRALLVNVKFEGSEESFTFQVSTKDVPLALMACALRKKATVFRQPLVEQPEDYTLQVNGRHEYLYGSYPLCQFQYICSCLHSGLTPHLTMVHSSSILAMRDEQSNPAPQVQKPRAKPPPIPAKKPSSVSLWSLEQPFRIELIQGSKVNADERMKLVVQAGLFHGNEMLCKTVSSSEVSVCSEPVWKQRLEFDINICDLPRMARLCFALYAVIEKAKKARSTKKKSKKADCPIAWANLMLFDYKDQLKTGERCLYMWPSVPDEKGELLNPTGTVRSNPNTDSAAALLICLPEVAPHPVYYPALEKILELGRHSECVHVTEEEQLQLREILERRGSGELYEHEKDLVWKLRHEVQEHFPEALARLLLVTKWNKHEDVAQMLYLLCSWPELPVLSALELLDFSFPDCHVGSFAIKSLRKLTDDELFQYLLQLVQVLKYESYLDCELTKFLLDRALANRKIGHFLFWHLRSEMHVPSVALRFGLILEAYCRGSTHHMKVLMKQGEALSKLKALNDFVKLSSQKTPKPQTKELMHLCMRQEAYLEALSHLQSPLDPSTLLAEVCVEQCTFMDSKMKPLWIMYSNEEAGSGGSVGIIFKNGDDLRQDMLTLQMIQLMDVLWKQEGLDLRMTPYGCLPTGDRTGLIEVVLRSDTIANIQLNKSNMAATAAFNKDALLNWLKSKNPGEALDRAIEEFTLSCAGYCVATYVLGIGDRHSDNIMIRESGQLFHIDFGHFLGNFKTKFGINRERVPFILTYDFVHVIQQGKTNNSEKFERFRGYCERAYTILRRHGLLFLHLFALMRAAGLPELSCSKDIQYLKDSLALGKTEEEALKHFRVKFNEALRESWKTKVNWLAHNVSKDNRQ
Sequence (P27986 whole entry partner): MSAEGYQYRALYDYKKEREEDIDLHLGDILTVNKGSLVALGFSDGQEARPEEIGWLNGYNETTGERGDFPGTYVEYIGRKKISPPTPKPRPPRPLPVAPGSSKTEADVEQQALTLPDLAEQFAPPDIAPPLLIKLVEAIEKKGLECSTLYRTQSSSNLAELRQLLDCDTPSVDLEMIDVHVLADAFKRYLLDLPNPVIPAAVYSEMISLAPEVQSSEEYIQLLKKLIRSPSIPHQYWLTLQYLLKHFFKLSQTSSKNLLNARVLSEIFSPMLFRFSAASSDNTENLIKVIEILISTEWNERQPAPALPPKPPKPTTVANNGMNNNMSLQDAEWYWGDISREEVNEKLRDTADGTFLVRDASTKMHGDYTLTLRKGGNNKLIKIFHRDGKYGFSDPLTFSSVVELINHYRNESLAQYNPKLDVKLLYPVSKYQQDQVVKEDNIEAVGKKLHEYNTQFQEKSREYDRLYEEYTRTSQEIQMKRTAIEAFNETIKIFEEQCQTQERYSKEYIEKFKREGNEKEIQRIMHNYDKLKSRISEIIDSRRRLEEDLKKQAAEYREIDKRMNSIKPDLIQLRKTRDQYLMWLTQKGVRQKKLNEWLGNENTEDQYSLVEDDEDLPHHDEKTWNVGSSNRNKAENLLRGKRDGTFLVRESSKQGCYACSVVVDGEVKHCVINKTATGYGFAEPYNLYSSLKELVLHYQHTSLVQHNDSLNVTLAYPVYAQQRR
test description: kinobeads assay, PI3K delta
Type: binding
assay context: kinobeads assay, Table 6; read-out: Inhibition values (IC50) PI3Kd
metric: IC50

Consider the worked cases shown below.
smiles record	tested on	IC50
CCNC(=O)Nc1ccc(-c2nc3c(c(N4CCOC[C@@H]4C)n2)CCN(C(=O)OC)C3)cc1	PI3K delta (PI3 Kd) (Homo sapiens, UniProt O00329)	> 10 µM
CCNC(=O)Nc1ccc(-c2nc3c(c(N4CCOCC4)n2)CCN(C)C3)cc1	PI3K delta (PI3 Kd) (Homo sapiens, UniProt O00329)	> 10 µM
C[C@H]1COCCN1c1nc(-c2ccc(NC(=O)Nc3cccc(O)n3)cc2)nc2c1CN(C)C2	PI3K delta (PI3 Kd) (Homo sapiens, UniProt O00329)	> 10 µM
CCCNC(=O)Nc1ccc(-c2nc3c(c(N4CCOC[C@@H]4C)n2)CN(CC2CC2)C3)cc1	PI3K delta (PI3 Kd) (Homo sapiens, UniProt O00329)	> 10 µM
CCNC(=O)Nc1ccc(-c2nc3c(c(N4CCOC[C@@H]4C)n2)CN(C)C3)cc1F	PI3K delta (PI3 Kd) (Homo sapiens, UniProt O00329)	> 10 µM
CCNC(=O)Nc1ccc(-c2nc3c(c(N4CCOC[C@@H]4C)n2)CCN(C(=O)C(C)(C)C)C3)cc1	PI3K delta (PI3 Kd) (Homo sapiens, UniProt O00329)	> 10 µM
CCNC(=O)Nc1ccc(-c2nc3c(c(N4CCOC[C@@H]4C)n2)CCN(C(C)=O)C3)cc1	PI3K delta (PI3 Kd) (Homo sapiens, UniProt O00329)	> 10 µM
CCNC(=O)Nc1ccc(-c2nc3c(c(N4CCOCC4)n2)CN(C(=O)NCC)C3)cc1	PI3K delta (PI3 Kd) (Homo sapiens, UniProt O00329)	1 to 10 µM
C[C@H]1COCCN1c1nc(-c2ccc(NC(N)=O)cc2)nc2c1CN(C)C2	PI3K delta (PI3 Kd) (Homo sapiens, UniProt O00329)	1 to 10 µM
CCNC(=O)Nc1ccc(-c2nc3c(c(N4CCOC[C@@H]4C)n2)CCN(CC2CC2)C3)cc1	PI3K delta (PI3 Kd) (Homo sapiens, UniProt O00329)	> 10 µM

stdin: Given the entry C[C@H]1COCCN1c1nc(-c2ccc(NC(N)=O)cc2)nc2c1CNC2 , what IC50 was observed with PI3K delta (PI3 Kd) (Homo sapiens, UniProt O00329)?
stdout: 1 to 10 µM

stdin: Another molecule to check: CCNC(=O)Nc1ccc(-c2nc3c(c(N4CCOC[C@@H]4C)n2)CN(CC)C3)cc1
stdout: > 10 µM

stdin: Another molecule to check: CNC(=O)Nc1ccc(-c2nc3c(c(N4CCOC[C@@H]4C)n2)CNCC3)cc1
stdout: > 10 µM

stdin: Another molecule to check: CCNC(=O)Nc1ccc(-c2nc3c(c(N4CCOC[C@@H]4C)n2)CN(C(=O)C2CCNCC2)C3)cc1F
stdout: > 10 µM

stdin: Another molecule to check: CNC(=O)Nc1ccc(-c2nc3c(c(N4CCOC[C@@H]4C)n2)CN(CC2CC2)C3)cc1
stdout: 1 to 10 µM

stdin: Another molecule to check: CCNC(=O)Nc1ccc(-c2nc3c(c(N4CCOCC4)n2)CN(C(C)=O)C3)cc1
stdout: 1 to 10 µM

====

tested on: PI3K delta (PI3 Kd) (Homo sapiens)
Construct: endogenous in cells; host or cells: Jurkat, clone E6-1 (ATCC TIB-152) cell lysate
test description: kinobeads assay, PI3K delta
Type: binding
assay context: kinobeads assay, Table 4; read-out: Inhibition values (IC50) PI3Kd
Procedure: The compounds of the present invention as described were tested in the mTOR kinobeads assay as described below. […] Bound proteins were then eluted and the presence of mTOR, PI3K delta (PI3 Kd) and DNA-dependent protein kinase (DNA-PK) was detected and quantified using a specific antibody in a dot blot procedure and the Odyssey infrared detection system. […]
metric: IC50

Consider the worked cases shown below.
smiles record	IC50
CCNC(=O)Nc1ccc(-c2nc3c(c(N4CCOC[C@@H]4C)n2)CN(C(C)=O)C3)cc1	1 to 10 µM
CCNC(=O)Nc1ccc(-c2nc3c(c(N4CCOC[C@@H]4C)n2)CNC3)cc1	> 10 µM
C[C@H]1COCCN1c1nc(-c2ccc(NC(=O)NC3CC3)cc2)nc2c1CCNC2	> 10 µM
C[C@H]1COCCN1c1nc(-c2ccc(NC(N)=O)cc2)nc2c1CNC2	1 to 10 µM
CNC(=O)Nc1ccc(-c2nc3c(c(N4CCOC[C@@H]4C)n2)CCNC3)cc1	> 10 µM
CC(C)NC(=O)Nc1ccc(-c2nc3c(c(N4CCOC[C@@H]4C)n2)CN(CC2CC2)C3)cc1	> 10 µM
CCNC(=O)Nc1ccc(-c2nc3c(c(N4CCOC[C@@H]4C)n2)CN(C=O)C3)cc1	> 10 µM
C[C@H]1COCCN1c1nc(-c2ccc(NC(=O)NC3CC3)cc2)nc2c1CN(CC(C)(C)C)C2	> 10 µM
C[C@H]1COCCN1c1nc(-c2ccc(NC(=O)NC3CC3)cc2)nc2c1CNCC2	> 10 µM

Consider the additional compound presented here.
stdin: # get_value(readout='IC50', item= CNC(=O)Nc1ccc(-c2nc3c(c(N4CCOC[C@@H]4C)n2)CNC3)cc1 )
stdout: 1 to 10 µM

====

tested on: mTOR (Homo sapiens)
Construct: endogenous in cells; host or cells: Jurkat, clone E6-1 (ATCC TIB-152) cell lysate
test description: mTOR kinobeads assay (competitive binding in Jurkat cell lysate, immunodetection)
assay context: kinobeads assay, Table 4; read-out: Inhibition values (IC50) mTor
metric: IC50

Consider the worked cases shown below.
smiles record	IC50
C[C@H]1COCCN1c1nc(-c2ccc(NC(=O)NC3CC3)cc2)nc2c1CN(C(=O)C1CC1)C2	< 100 nM
CNC(=O)Nc1ccc(-c2nc3c(c(N4CCOC[C@@H]4C)n2)CCNC3)cc1	< 100 nM
C[C@H]1COCCN1c1nc(-c2ccc(NC(=O)NC3CC3)cc2)nc2c1CN(C(=O)C(C)(C)C)C2	100 to 1000 nM

Consider the additional compound presented here.
stdin: Given the entry CCNC(=O)Nc1ccc(-c2nc3c(c(N4CCOC[C@@H]4C)n2)CN(C(=O)C(C)(C)C)C3)cc1 , what IC50 was observed with mTOR (Homo sapiens)?
stdout: 100 to 1000 nM

====

Below is a list of entries, each paired with its recorded IC50 value.
tested on: mTOR (Homo sapiens)
Construct: endogenous in cells; host or cells: Jurkat, clone E6-1 (ATCC TIB-152) cell lysate
test description: mTOR kinobeads assay (competitive binding in Jurkat cell lysate, immunodetection)
assay context: kinobeads assay, Table 4; read-out: Inhibition values (IC50) mTor

Consider the worked cases shown below.
molecule	result
CCNC(=O)Nc1ccc(-c2nc3c(c(N4CCOC[C@@H]4C)n2)CCN(CC2CC2)C3)cc1 [Example 37]	< 100 nM
CCNC(=O)N1Cc2nc(-c3ccc(NC(=O)NC4CC4)cc3)nc(N3CCOC[C@@H]3C)c2C1 [Example 33]	< 100 nM
COCCCNC(=O)Nc1ccc(-c2nc3c(c(N4CCOC[C@@H]4C)n2)CN(C)C3)cc1 [Example 53]	100 to 1000 nM

Consider the additional molecule presented here.
stdin: # get_value(readout='IC50', item= CC(C)N1CCc2c(nc(-c3ccc(NC(=O)NC4CC4)cc3)nc2N2CCOC[C@@H]2C)C1 [Example 43] )
stdout: < 100 nM

====

Below is a list of entries, each paired with its recorded pIC50 value.
tested on: PI3K delta (PI3 Kd) (Homo sapiens)
Construct: endogenous in cells; host or cells: Jurkat, clone E6-1 (ATCC TIB-152) cell lysate
test description: kinobeads assay, PI3K delta
Type: binding
assay context: Further Kinobeads Data; read-out: PI3Kd
pIC50: −log10 of the molar value. Where a name gives a salt, the structure may show the parent alone.

Consider the worked cases shown below.
compound	tested on	result
CC(C)N1Cc2nc(-c3ccc(NC(=O)NCCO)cc3F)nc(N3CCOCC3)c2C1	PI3K delta (PI3 Kd) (Homo sapiens)	5.00 to 6.00
C[C@H]1COCCN1c1nc(-c2ccc(NC(=O)NC3CC3)cc2F)nc2c1CCNC2	PI3K delta (PI3 Kd) (Homo sapiens)	< 5.00
COC(=O)N1Cc2nc(-c3ccc(NC(=O)NC4CC4)cc3F)nc(N3CCOC[C@H]3C)c2C1	PI3K delta (PI3 Kd) (Homo sapiens)	< 5.00
CC(=O)N1Cc2nc(-c3ccc(NC(=O)NC4CC4)cc3F)nc(N3CCOC[C@@H]3C)c2C1	PI3K delta (PI3 Kd) (Homo sapiens)	< 5.00

stdin: # get_value(readout='pIC50', item= CCOC(=O)N1Cc2nc(-c3ccc(NC(=O)NCCF)cc3F)nc(N3CCOCC3)c2C1 )
stdout: 5.00 to 6.00

stdin: Another compound to check: CCOC(=O)N1Cc2nc(-c3ccc(NC(=O)NCCO)cc3F)nc(N3CCOC[C@@H]3C)c2C1
stdout: 5.00 to 6.00

stdin: Another compound to check: CC(C)(C)OC(=O)N1Cc2nc(-c3ccc(NC(=O)NC4CC4)cc3F)nc(N3CCOCC3)c2C1
stdout: < 5.00

stdin: Another compound to check: C[C@H]1COCCN1c1nc(-c2ccc(NC(=O)NC3CC3)cc2F)nc2c1CNC2 [Example 149, hydrochloride]
stdout: < 5.00

stdin: Another compound to check: CC(C)NC(=O)N1CCc2c(nc(-c3ccc(NC(=O)NC4CC4)cc3F)nc2N2CCOC[C@@H]2C)C1
stdout: < 5.00

stdin: Another compound to check: CCNC(=O)Nc1ccc(-c2nc3c(c(N4CCOC[C@@H]4C)n2)CCNC3)c(F)c1
stdout: < 5.00

stdin: Another compound to check: CCNC(=O)Nc1ccc(-c2nc3c(c(N4CCOC[C@@H]4C)n2)CN(C(=O)OC(C)(C)C)C3)c(F)c1
stdout: < 5.00
